Here the recorded Km is given for each entry.
Tested on: Klebsiella oxytoca
Experiment: Activity of Klebsiella oxytoca Beta-lactamase K1
READOUT TYPE: Km (µM)

> print(dat)
                               given.smiles  measure.unit  value.observed
1  C[C@@H](O)[C@H]1C(=O)N2C(C(=O)O)=C(S[C@@H]3CN[C@H](CNS(N)(=O)=O)C3)[C@H](C)[C@H]12            µM              45
2  CC(C)(O/N=C(\C(=O)N[C@@H]1C(=O)N2C(C(=O)[O-])=C(C[n+]3ccccc3)CS[C@H]12)c1csc(N)n1)C(=O)O            µM             140
3  C[C@@H](O)[C@H]1C(=O)N2C(C(=O)O)=C(S[C@@H]3CN[C@H](C(=O)N(C)C)C3)[C@H](C)[C@H]12            µM              90
4  CC1(C)S[C@@H]2[C@H](NC(=O)Cc3ccccc3)C(=O)N2[C@H]1C(=O)O            µM              40
5  C[C@@H](O)[C@H]1C(=O)N2C(C(=O)O)=C(SCCNC=N)C[C@H]12            µM              51
6  O=C(Cc1cccs1)N[C@@H]1C(=O)N2C(C(=O)[O-])=C(C[n+]3ccccc3)CS[C@H]12            µM             110
